Experiment: Cmax in male Beagle dog at 0.5 mg/kg, po by LC-MS/MS analysis
Assay type: ADME, organism-based, Canis lupus familiaris
Set-up: dose 0.5 mg/kg, route oral
Conditions: in vivo

>  <smiles_representation>
COC(=O)N(C)c1c(N)nc(-c2nn(Cc3sccc3F)c3ncccc23)nc1N

>  <Cmax, ng/mL>
83.8

$$$$

###

Species: Rattus norvegicus
Experiment: Stimulatory activity at sGC in Sprague-Dawley rat thoracic aorta assessed as inhibition of norepinephrine-induced contraction at 1 uM by JZ100 strain guages based isometric analysis relative to control
Set-up: scale not given: the % may be the effect or the level left
Think of 40% as a floor: if Activity stands on it or above, it is true; beneath it, false.

>  <compound>
CCOC(=O)N(C)c1c(N)nc(-c2nn(Cc3ccc(F)s3)c3ncccc23)nc1N

>  <assigned_class>
false

$$$$
>  <compound>
CCOC(=O)Nc1c(N)nc(-c2nn(Cc3ccc(F)s3)c3ncccc23)nc1N

>  <assigned_class>
true

$$$$
>  <compound>
COC(=O)N(C)c1c(N)nc(-c2nn(Cc3sccc3F)c3ncccc23)nc1N

>  <assigned_class>
true

$$$$
>  <compound>
COC(=O)Nc1c(N)nc(-c2nn(Cc3cccnc3F)c3ncccc23)nc1N

>  <assigned_class>
false

$$$$
>  <compound>
CC(C)OC(=O)N(C)c1c(N)nc(-c2nn(Cc3sccc3F)c3ncccc23)nc1N

>  <assigned_class>
true

$$$$
>  <compound>
CCOC(=O)N(CC)c1c(N)nc(-c2nn(Cc3cncc(C)c3)c3ncccc23)nc1N

>  <assigned_class>
false

$$$$
>  <compound>
COC(=O)N(C)c1c(N)nc(-c2nn(Cc3ccccc3F)c3ncccc23)nc1N [RIOCIGUAT]

>  <assigned_class>
true

$$$$
>  <compound>
CCN(C(=O)OC(C)C)c1c(N)nc(-c2nn(Cc3cncc(C)c3)c3ncccc23)nc1N

>  <assigned_class>
false

$$$$
>  <compound>
Cc1cncc(Cn2nc(-c3nc(N)c(N(C)C(=O)OC(C)C)c(N)n3)c3cccnc32)c1

>  <assigned_class>
false

$$$$
